Experiment: protein stability index of a GFP-peptide fusion (GPS, HEK-293T) (PSI 1-6); higher = more stable;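 also: 24-mer peptide tiles fused after GFP, lentivirally expressed, FACS-sorted into six equal bins by GFP/DsRed ratio, decoded by Illumina sequencing, PSI is the read-weighted mean bin number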
Conditions: treatment: DMSO; c terminus: a fixed tail appended
readout: protein stability index
No unit in the answer, only the number.

The reported protein stability index of the sequence IWLAESVLDILTEQREWVLKSSIL [INTS3] was 2.88

The reported protein stability index of the sequence QFQDLTGIESMDQCRHTLEQHNWN [FAF2] was 3.1

----------
Assay: protein stability index of a GFP-peptide fusion (GPS, HEK-293T) (PSI 1-6); higher = more stable
Details: treatment: MLN4924 1 uM, 8 h; c terminus: a fixed tail appended
Dear colleague, classification is by protein stability index, with ranges listed here: bottom range: < 3; center range: ≥ 3 and < 4; top range: ≥ 4

The examples below pair each entry with its known result.
Asked: Class for LEKDTMDNWDEKKLEEVVNKKHGE [ZC3H15] ?
Given back: top range

Asked: Class for ARPSSASIRDANLYVSGLPKTMSQ [ELAVL3] ?
Given back: center range

Asked: Class for ERTSPGAIHYCASTSEESWTDSEV [SPDEF] ?
Given back: top range

New cases:
Asked: Class for EMREQYEAMAEKNRRDVEAWFFSK [KRT15] ?
Given back: center range

Asked: Class for GNLSVLDVGCISVTVPSMLSRLLS [OR3A1] ?
Given back: bottom range

Asked: Class for TSEGTLELQQRNPKAERLRWSPAQ [ZNF232] ?
Given back: top range

Asked: Class for PPNGPNLPMATVDIKNPEITTNRF [WASL] ?
Given back: top range

Asked: Class for GGSHPSRPNSRHTPSFSGDSSSSC [VDR] ?
Given back: top range

Asked: Class for VVGNWQYFFPVIFSKASSSLQLVF [MAGEA3] ?
Given back: center range

Asked: Class for AACLYLVCRTEGTPHMLLDLSDLL [BRF1] ?
Given back: bottom range

Asked: Class for MAAGGRMEDGSLDITQSIEDDPLL [TMEM192] ?
Given back: top range

----------
Assay: protein stability index of a GFP-peptide fusion (GPS, HEK-293T) (PSI 1-6); higher = more stable
Conditions: treatment: DMSO; c terminus: a fixed tail appended
protein stability index for assorted sequences
No unit in the answer, only the number.

Below, 6 sequences whose answers are already recorded.
The reported protein stability index of the sequence ISEAFSQRVGFGDDFDEDELMAEL [CHMP4C] was 4.86

The reported protein stability index of the sequence MLENYSNLVSVGYQAGKPDALTKL [ZNF649] was 2.72

The reported protein stability index of the sequence VCTDTDRWSLISLSNKNGKNVELK [TENT5C] was 3.46

The reported protein stability index of the sequence GSEKVTMQNLNDRLASYLDKVRAL [KRT16] was 2.88

The reported protein stability index of the sequence MRAAALCDKHSKLFEEPEDPSNRS [PPP2R2C] was 5.14

The reported protein stability index of the sequence EMSIHLSRPNGTSAMLLVTLGKVL [MED27] was 2.41

New cases:
The reported protein stability index of the sequence LNLGSGTGYLSTMVGLILGPFGIN [PCMTD1] was 3.33

----------
Experiment: protein stability index of a GFP-peptide fusion (GPS, HEK-293T) (PSI 1-6); higher = more stable
Details: treatment: MLN4924 1 uM, 8 h; c terminus: a fixed tail appended
protein stability index for assorted sequences
No unit in the answer, only the number.

Below, 8 sequences whose answers are already recorded.
The reported protein stability index of the sequence DSQRVASVSLDRCIKIWDVTSQAT [WDR88] was 3.12

The reported protein stability index of the sequence VFPIKHYQDKIRPYIQLPSHSNIT [TRIB1] was 2.62

The reported protein stability index of the sequence LEKGSFVGNISKDLGLAPRELAER [PCDHGA10] was 4.54

The reported protein stability index of the sequence PIETLIRDMLLSGSSFNWPYMAIQ [NR2F2] was 2.95

The reported protein stability index of the sequence EEFIATIRAAKGLDQALKEGGKLP [ZC2HC1A] was 3.93

The reported protein stability index of the sequence GGYAIAVVLLQGAELLLAARLLGA [TSPAN10] was 2.96

The reported protein stability index of the sequence LRQQLVVSKELRMYDEKAHEWKSL [KLHL13] was 2.98

The reported protein stability index of the sequence THEVMGPKKKHLDYLIQATNETNV [SNAP91] was 3.69

New cases:
The reported protein stability index of the sequence TYSKFQPQSPDFLDITNPKAVLEN [UFD1] was 4.24

The reported protein stability index of the sequence SGLVRRLWRSRVVPDREEGGSGGG [SMAD6] was 4.33

The reported protein stability index of the sequence SRLQEDPEGTENPLGVDESLFSYG [SLA] was 4.66

The reported protein stability index of the sequence LPLLSPKFLVGTVGSDPLIKSDEE [KLHL20] was 4.43

The reported protein stability index of the sequence IKPPPPLVLNSQQSDTLEQREEHE [RAD54B] was 5.3

The reported protein stability index of the sequence AHQQKKHSGFEDELSEVLENQSSQ [CHGA] was 5.25

The reported protein stability index of the sequence FDDGDDIMATLGFGDSPKAEKRQI [FBF1] was 4.32

The reported protein stability index of the sequence CHSHTVVQDYSYFFFLRMDENYNL [CCDC3] was 2.4

The reported protein stability index of the sequence SLLNFLPEGVNKLKISPVTLKEAY [TENT5C] was 2.41

The reported protein stability index of the sequence SIYPMEVLKTRMALRKTGQYSGML [SLC25A25] was 2.6

The reported protein stability index of the sequence LLSGAFKKRRLPPVHIHPAFARQA [FOXJ1] was 2.54

The reported protein stability index of the sequence CRADHGLLLERAAAGSPRSPGPLP [ISL2] was 3.1

Where these numbers come from: the supplement of paper PMC10567573
